# Test system: HIV-1 strain 2165
# condition_notes: peptide with Pep-1 or Pep-3 at ratio 20/1, combinations with Pep-3
pIC50: −log10 of the molar value. Where no end group is shown, it is not given here.
Here the recorded pIC50 is given for each entry.
property_name: pIC50

{"columns": ["sequence_text", "target_entity", "numeric_readout"],
 "data": [
  ["GTKWLTEVWPL [Peptide P16]", "HIV-1 strain 2165", 8.57],
  ["GTKWLTEWIPLTAE [Peptide P27]", "HIV-1 strain 2165", 8.59]
]}

Values were extracted from patent US20110294728A1.
